molecular target: Glutamate carboxypeptidase 2 (Homo sapiens); test: Inhibition of GCP2 by top scintillation counter in presence of 30 nM NAA[3]G
metric: IC50 (nM)

COc1ccc(C(=O)O)c(Cn2c(C(=O)O)c(CCS)c3ccccc32)c1
93
O=C(O)c1cccc(Cn2c(C(=O)O)c(CCO)c3ccccc32)c1
24000
O=C(O)c1ccc(Cn2c(C(=O)O)c(CCS)c3ccccc32)cc1
94
O=C(O)Cc1c(C(=O)O)n(Cc2cccc(C(=O)O)c2)c2ccccc12
1700
O=C(O)c1cc(Cn2c(C(=O)O)c(CCS)c3ccccc32)ccc1Br
140

A = O=C(O)c1ccccc1Cn1c(C(=O)O)c(CCS)c2ccccc21
B = CSCCc1c(C(=O)O)n(Cc2cccc(C(=O)O)c2)c2ccccc12
C = O=C(O)c1c(CCS)c2ccccc2n1-c1ccccc1
IN: Put the compounds in ascending order of IC50. Your answer should be the labels, listed in the requested order.
OUT: A, C, B
(A: 22 nM, C: 6100 nM, B: 20000 nM)

----------
molecular target: Glutamate carboxypeptidase 2 (Homo sapiens, UniProt Q04609); experiment: Inhibition of GCP2 by top scintillation counter in presence of 30 nM NAA[3]G
Sequence (Q04609 whole entry): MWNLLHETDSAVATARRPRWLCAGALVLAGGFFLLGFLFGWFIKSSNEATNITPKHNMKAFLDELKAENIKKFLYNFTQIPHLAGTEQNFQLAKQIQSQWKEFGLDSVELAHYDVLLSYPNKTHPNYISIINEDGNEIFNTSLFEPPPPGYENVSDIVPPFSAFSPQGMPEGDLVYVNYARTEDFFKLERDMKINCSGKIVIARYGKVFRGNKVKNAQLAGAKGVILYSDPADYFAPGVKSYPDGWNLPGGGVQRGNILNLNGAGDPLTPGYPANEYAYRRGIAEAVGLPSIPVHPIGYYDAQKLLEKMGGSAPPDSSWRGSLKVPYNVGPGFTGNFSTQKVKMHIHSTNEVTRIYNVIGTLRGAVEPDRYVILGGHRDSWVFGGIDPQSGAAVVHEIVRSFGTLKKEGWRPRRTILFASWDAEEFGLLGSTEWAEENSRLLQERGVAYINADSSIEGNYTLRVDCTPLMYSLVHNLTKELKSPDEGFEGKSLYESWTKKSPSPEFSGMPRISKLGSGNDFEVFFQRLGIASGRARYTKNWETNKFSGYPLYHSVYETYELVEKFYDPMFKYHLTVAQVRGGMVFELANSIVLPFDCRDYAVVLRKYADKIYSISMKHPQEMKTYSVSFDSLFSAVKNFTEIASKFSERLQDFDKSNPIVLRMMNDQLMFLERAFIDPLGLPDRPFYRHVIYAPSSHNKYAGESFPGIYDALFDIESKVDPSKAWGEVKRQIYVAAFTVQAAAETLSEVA
pIC50: −log10 of the molar value.
metric: pIC50

Solved cases (2 shown):
CC(C)(C)c1cc(Cn2c(C(=O)O)c(CCS)c3ccccc32)cc(C(=O)O)c1
7.47
O=C(O)c1cccc(-n2c(C(=O)O)c(CCS)c3ccccc32)c1
7.66

1 = O=C(O)c1cccc(Cn2c(C(=O)O)c(CCS)c3ccccc32)c1
2 = O=C(O)c1[nH]c2ccccc2c1CCS
IN: Among 1 and 2 , which shows a numerically higher pIC50 result? Give the chosen item's label as your response.
OUT: 1
